test system: PPARg DBDmut IVT, anti-PPARg (DBD mutation: PPARg1 K132A/R137A, NR concentration 270 nM); experiment: PBM binding z-score (relative to random genomic background probes); higher = stronger binding; sequences stand for … in GC…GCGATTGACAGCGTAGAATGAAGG
Returns YES if the recorded PBM binding z-score is greater than or equal to 0.7, and NO otherwise.

{"columns": ["SEQ_TEXT", "ANSWER_LABEL"],
 "data": [
  ["AGTCGAAGTTCACTAGGTAACGTAAGATTCAGCT", "YES"],
  ["ATATGTAGGTTATCGGGTCCTTCAGTTTGCGCAT", "YES"],
  ["AGATGTAGGTTAAGGGTCATTCAGGTTGGTTCGC", "YES"],
  ["TCATATCGGTAAATGCTAGGTGAAAGTCCGATCT", "YES"],
  ["CCTATTAGTTGACCATAAGGGCAAACGAAGCTCG", "NO"],
  ["CCTTACGGGTCAAGGTTATAGCTCGGGTGGTACG", "NO"],
  ["TGTCAAAGTTCAAAGTTAACGTAAGTATCCACAC", "YES"],
  ["CCTAGCATGCCAATCTGGGTCACTCAAGGCTTGA", "NO"],
  ["TCTCGGACGACACGAAGGTCAGAGCTTTCCAGAG", "NO"],
  ["CTGGAAAGGTCGTGCTCAGGTGAGTATACCAAAC", "NO"],
  ["TCGAGTAGGTTACCAATGAGGCATTCAGCTTTCT", "NO"],
  ["CAAACTAGGTCACGAAAGGTGAAAGTCGAATGAC", "YES"],
  ["TCATATAGGTAGATGCTAGGTGAAAGTCCGATCT", "NO"],
  ["TCTTGTAGATGAAGCAGGTTAAGAAAGCCTGAGT", "NO"],
  ["CCTAGTTGGTCAGGAGGTCAAACACCGGATATGA", "NO"],
  ["CCTACTGGGCCAAGGTCGTTGATCAGTCAAAGCA", "NO"],
  ["GCTGCTAGGTCAACTGATGGTCGGCTAAAGCTCG", "NO"],
  ["CCTATTAGTTGACCATAAGGGCAACGGAAGCTCG", "YES"],
  ["CGTCCAAGGTCAGAGATGTCAGTGAATGCCGAGT", "NO"],
  ["CGTACAAGGTCATAGGAGGTCAGTGAAGACAGAT", "YES"]
]}

---

tested on: RARg homodimer (NR concentration 270 nM); assay: PBM binding z-score (relative to random genomic background probes); higher = stronger binding; sequences stand for … in GC…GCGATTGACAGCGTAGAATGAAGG
Returns true if the recorded PBM binding z-score is greater than or equal to 1, and false otherwise.

{"columns": ["SEQ_TEXT", "ANSWER_LABEL"],
 "data": [
  ["CAAACTAGGTCACGAAAGGACAAAGTCGAATGAC", "true"],
  ["CCTGCTAGGTTAATGGTCAGCTAAAGCAGCTCGC", "false"],
  ["TCTGGTTGGTCAAAGGTCACACACTCGAAATGCG", "true"],
  ["CTCGAAAGGCCGTGCTCAGGTGAGTATACCAAAC", "false"],
  ["TCTGCTAGGTCAACGATGCTCAGCTAATCTGCTA", "true"],
  ["GCGTATAGGTAATACAAGGTGAAAGTCCGATTGT", "false"],
  ["CATACAGGGTCAGCTAGGCCAGACTAGGGACGGC", "true"],
  ["GCTAGTTGGTCAGTAAAAGGTCTCACACCGGTCG", "false"],
  ["TCGTATAGGTAAAGGTGAAAGTCGAACGATATGA", "true"],
  ["GATACAGGGTCAGCTAGAGGCAAGAGTATGGAAA", "true"],
  ["CGTCAAAGTTCAACTAACGTAACGTAAAGCACGC", "true"],
  ["ATCGAAAGGTCGTTAGGTGAGTATACAGAAAGGC", "true"],
  ["CAAACTAGGTCACAGCGGTCAAAGTCCGTGCGTA", "true"],
  ["CCAGACAGGTGAGAGGTAACTCAGTCTGGTACGC", "false"],
  ["CGAACGAGGGCATGAGTTGAAAGCAAATGCCGAT", "true"],
  ["GTAACGAGGGCAAAGTTGATAGCATCTGTCGACG", "true"],
  ["ATACCAAGGTGATTGTGAGGTCGTTGATACTAAC", "true"],
  ["TCGAATAGGTTACCAATGGGGCATTCAGCTTTCT", "false"],
  ["CTCGAAAGGTCGTGCCCAGGTGAGTATACCAAAC", "true"],
  ["CCTTTTAGTTGACCATAAGGGCAACCGAAGCTCG", "true"],
  ["CCTACTGGGCCAGGGTCATTGATCAGTCAAAGCA", "true"],
  ["GATACAGGGTCAGCTAGAGGCCAGAGAATGGAAA", "true"]
]}

---

tested on: PPARg homodimer (NR concentration 180 nM); experiment: PBM binding z-score (relative to random genomic background probes); higher = stronger binding; sequences stand for … in GC…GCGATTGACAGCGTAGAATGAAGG
// reported PBM binding z-score for each item listed
ENDPOINT_LABEL: PBM binding z-score

{"columns": ["SEQ_TEXT", "ASSAYED_SYSTEM", "ENDPOINT_LABEL", "VALUE"],
 "data": [
  ["TCTAATAGTTGAAGGGCAACCGACGAGTCCGTTT", "PPARg homodimer (NR concentration 180 nM)", "PBM binding z-score", 0.705],
  ["AACACAGGGTCACTAGGCCAGAGTAGGTACGAAT", "PPARg homodimer (NR concentration 180 nM)", "PBM binding z-score", 5.13],
  ["TCTGGGAGGACACGAAGGTCAGAGCTTTCCAGAG", "PPARg homodimer (NR concentration 180 nM)", "PBM binding z-score", 1.05],
  ["TGCATGAGGTTATAAGATCAGGGAACGTTGCAAA", "PPARg homodimer (NR concentration 180 nM)", "PBM binding z-score", 0.466],
  ["TAGCCTAGGTCAATGGGCCAGTATAGTACGCATC", "PPARg homodimer (NR concentration 180 nM)", "PBM binding z-score", 0.9],
  ["GCGACTGGGGAATCAGCAGGTTACCATAACTTAA", "PPARg homodimer (NR concentration 180 nM)", "PBM binding z-score", -0.3],
  ["TCTTGTAGATCAAAGGTTAATAAAGCCGAAGCCT", "PPARg homodimer (NR concentration 180 nM)", "PBM binding z-score", 1.25]
]}

---

test system: PPARa:RXRa (NR concentration 270 nM, RXRa partner concentration 90 nM); assay: PBM binding z-score (relative to random genomic background probes); higher = stronger binding; sequences stand for … in GC…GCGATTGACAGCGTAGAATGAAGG
// reported PBM binding z-score for each item listed

{"columns": ["SEQ_TEXT", "PBM binding z-score"],
 "data": [
  ["CCATACAGGTGAGAAGGTAACTCAGCCTCGATTA", 1.01],
  ["CAAACTAGGTCAAGAGGTCAAAGCCCGCTTCCCG", 6.76],
  ["AGTCAAAGTTCATCTAGGTAAGGTAAGATATGCT", 5.02],
  ["ATCGAGAGGTCGAAGGTGAGTATACCCACCCGAA", 4.07],
  ["ACTATTAGTTGAGACGAGGGCAGCCGATAGGTTG", -0.0872],
  ["TCATATAGGTAAATACTAGGTGAAAGTCCGATCT", 2.16],
  ["CATCCAAGGTCAATGCTAGGTCAGTGAAAGCATT", 5.06],
  ["CGTCAAAGTTCAACTAAAGTAACGTAAAGCACGC", 4.93],
  ["ATCTAAAGGTCGACGAGGTGAGTATACACCGTTT", 4.38],
  ["TCTCGGAGGACACGAAGGTCTGAGCTTTCCAGAG", 0.131],
  ["CCTACTGGGCCAAAAAGGTCTTTGATGCCGATAA", 0.669],
  ["GCAGCCAGGTGAAACGCAGGTAACTCAGGGTGGC", 0.132],
  ["TAGCCTAGGTCATGGGCCAGTAAACCACGCGAAC", 4.46],
  ["GCGACTGTGGCAAAGCAGGTTACCATAAGGTTGG", 0.3],
  ["TCTATCAGTTGAAGGGCAACCGACGAGTCCGTTT", 0.935],
  ["ACTCGGAGGACAAAGGTCAGACCTACGCCAGTGA", 4.93],
  ["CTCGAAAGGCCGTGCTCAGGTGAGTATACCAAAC", -0.342],
  ["ACTCGCAGGACAAAGGTCAGAGCTACGCCAGTGA", 4.75],
  ["TCATTTAGGTAAAAGGTGAAAGTCGGTGTGGTAA", 5.05],
  ["AGAATGAGGTTTTTAAGATCAGGGAATTGCGGTC", 0.0197],
  ["CAGCCTAGGTCAGGGCCAGTAAAGGAGGAACGTT", 2.26],
  ["ATCTCTAGGTAAGACTGAGTTCAGTGAAGAACGC", 0.568],
  ["TCATATAGGTAAATGCTATGTGAAAGTCCGATCT", 1.13],
  ["GTACCAAAGTGAATAGGTCGTTGATGAGTAGGCG", 0.468],
  ["ATCTCGAGGTAAAAGTTCAGTGAATCCCGAGGAT", 3.44],
  ["CAAACTAAGTCACAGAGGTCAAAGTCCGTGCGTA", 5.18],
  ["CGTCCAAGTTCATAGGAGGTCAGTGAAGACAGAT", 3.83],
  ["TCGTATAGGTAATACAGGTGAAAGTCGGCATCTA", 1.75],
  ["AGAATGAGGTTATACGTAGATAAGGGAAGAAAGT", 3.3],
  ["TCTTGTAGAACAAGCAGGTTAAGAAAGCCTGAGT", 0.777],
  ["ATACCAAGGTGATCGTGAGCTCGTTGATACTAAC", 0.174],
  ["CGAACTAGGTCATTGATAGGACAGTGAATAGTAA", 4.38],
  ["AGAATGAGGTTATACGTAGATCAGGGTAGAAAGT", 3.21],
  ["GCTAGCAGGCCTTTTGGGTCACTCAATGACGGGC", 0.992],
  ["ATATGTAGGTTCTCGGGTCATTCAGTTTGCGCAT", 3.89]
]}

Origin of measurements: the supplement of paper PMC6555819
